These data points were gathered from paper PMC3035456.

# TEST TARGET: HuR123 (UniProt Q15717 1-306)
# Sequence (Q15717 1-306): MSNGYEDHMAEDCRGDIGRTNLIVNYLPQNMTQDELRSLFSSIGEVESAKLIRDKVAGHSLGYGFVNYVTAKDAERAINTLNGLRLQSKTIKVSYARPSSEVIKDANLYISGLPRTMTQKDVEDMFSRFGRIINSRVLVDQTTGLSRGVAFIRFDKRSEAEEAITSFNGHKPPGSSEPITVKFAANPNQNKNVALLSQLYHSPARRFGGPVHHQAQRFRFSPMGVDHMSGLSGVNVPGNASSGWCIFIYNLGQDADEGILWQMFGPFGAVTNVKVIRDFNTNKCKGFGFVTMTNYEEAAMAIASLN
# ASSAY: SPR
PROPERTY LABEL: Kd

GGGGGGUUUUUUUUUUUUUUUUUGGGGG (ssRNA) [U-rich RNA 28-mer]	0.05 nM
GGGGGGUAUUUAUUAUUUAUUUAGGGGG (ssRNA) [AU-rich RNA 28-mer (TNF-alpha ARE)]	0.2 nM
